# assay_method_text: Storage stability of ATBS / ATBS.K stored in solid form: homopolymer by steric exclusion chromatography
# Type: physicochemical
# settings: newly prepared solution, T0 + 3 months, potassium salt
readout_type: UV signal at 250 nm integrated for the polymer peaks (mV.s)
Numbers only, in mV.s.

Before answering, review these 3 worked examples.
C=CC(=O)NC(C)(C)CS(=O)(=O)[O-].[K+] [ATBS.K CE-AK2e] = 251
C=CC(=O)NC(C)(C)CS(=O)(=O)[O-].[K+] [ATBS.K CE-AK2d] = 254
C=CC(=O)NC(C)(C)CS(=O)(=O)[O-].[K+] [ATBS.K CE-AK2c] = 261

Now for the compound whose UV signal at 250 nm integrated for the polymer peaks we want.
For reference, reported UV signal at 250 nm integrated for the polymer peaks for C=CC(=O)NC(C)(C)CS(=O)(=O)[O-].[K+] [ATBS.K AK2a] stands at 200
